Data provenance: ChEMBL document CHEMBL2417435

# SUBJECT_OF_TEST: Short transient receptor potential channel 3 (Homo sapiens)
# Sequence (Q13507 whole entry): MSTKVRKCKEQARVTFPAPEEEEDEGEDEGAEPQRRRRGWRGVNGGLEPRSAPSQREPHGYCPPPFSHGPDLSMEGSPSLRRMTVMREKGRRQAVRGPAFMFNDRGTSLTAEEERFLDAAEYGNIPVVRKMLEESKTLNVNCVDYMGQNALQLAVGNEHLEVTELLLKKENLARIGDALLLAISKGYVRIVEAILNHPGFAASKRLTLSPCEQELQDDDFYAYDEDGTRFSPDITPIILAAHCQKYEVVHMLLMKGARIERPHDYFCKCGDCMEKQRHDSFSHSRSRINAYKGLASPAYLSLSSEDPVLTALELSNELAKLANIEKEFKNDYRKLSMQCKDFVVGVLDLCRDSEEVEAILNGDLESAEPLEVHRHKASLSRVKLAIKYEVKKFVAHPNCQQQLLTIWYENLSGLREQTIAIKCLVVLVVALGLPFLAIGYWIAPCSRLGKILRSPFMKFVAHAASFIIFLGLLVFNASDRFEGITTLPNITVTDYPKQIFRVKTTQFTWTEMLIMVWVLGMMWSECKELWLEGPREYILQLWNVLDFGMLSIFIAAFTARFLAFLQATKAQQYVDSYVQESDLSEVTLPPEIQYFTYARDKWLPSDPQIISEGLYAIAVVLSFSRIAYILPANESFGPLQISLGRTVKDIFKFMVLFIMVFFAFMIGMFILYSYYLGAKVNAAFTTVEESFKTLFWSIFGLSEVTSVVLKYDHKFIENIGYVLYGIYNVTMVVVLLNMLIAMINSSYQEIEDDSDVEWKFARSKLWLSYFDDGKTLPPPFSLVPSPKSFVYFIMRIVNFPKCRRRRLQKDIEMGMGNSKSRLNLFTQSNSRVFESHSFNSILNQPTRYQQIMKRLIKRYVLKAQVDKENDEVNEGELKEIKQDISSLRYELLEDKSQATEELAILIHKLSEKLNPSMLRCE
# ASSAY_EXPLANATION: Inhibition of human recombinant TRPC3 expressed in HEK293-MSRII cells assessed as carbachol-stimulated Ca2+/Na+ influx after 10 mins by FLIPR assay
# Type: cell-based
pIC50: −log10 of the molar value.
OBSERVED_PROPERTY: pIC50

Study these solved cases before continuing.
COMPOUND	OBSERVED_PROPERTY	RESULT_VALUE
CC1CCCN(C(=O)c2csc(Nc3ccc4c(c3)OCO4)n2)C1C (stereo unspecified)	pIC50	7.10
Cc1sc(Nc2ccc(Cl)cc2F)nc1C(=O)N1CCc2ncccc2C1	pIC50	4.70
Cc1sc(Nc2ccc3c(c2)OCO3)nc1C(=O)N1CCc2ncccc2C1C (stereo unspecified)	pIC50	5.00
COc1ccc(Nc2nc(C(=O)N3CCc4ccccc4C3)cs2)cc1	pIC50	5.90
Cc1ccc(Nc2nc(C(=O)N3CCCCC3C)cs2)cc1 (stereo unspecified)	pIC50	6.10
COc1ccc(Nc2nc(C(=O)N3CCC(C)CC3)cs2)cc1	pIC50	6.10

A. Cc1sc(Nc2ccc(Cl)cc2F)nc1C(=O)N1CCC[C@H](C)[C@@H]1C
B. Cc1sc(Nc2ccc3c(c2)OCO3)nc1C(=O)N1CCc2ccccc2C1C (stereo unspecified)
Looking only at measured pIC50, which entry is lower, A or B ? Give the label under which the chosen entry appears.
B
(B: 6.50, A: 7.00)

I. Cc1sc(Nc2ccc(Cl)cc2F)nc1C(=O)N1CCCC(C)C1C (racemic)
II. Cc1ccc(Nc2nc(C(=O)N3CCC(C)CC3)cs2)cc1
Looking only at measured pIC50, which entry is lower, I or II ? Give the label under which the chosen entry appears.
II

###

# SUBJECT_OF_TEST: Short transient receptor potential channel 3 (Homo sapiens, UniProt Q13507)
# ASSAY_EXPLANATION: Inhibition of human recombinant TRPC3 expressed in HEK293-MSRII cells assessed as carbachol-stimulated Ca2+/Na+ influx after 10 mins by FLIPR assay
pIC50: −log10 of the molar value.
OBSERVED_PROPERTY: pIC50

COMPOUND	SUBJECT_OF_TEST	OBSERVED_PROPERTY	RESULT_VALUE
COc1ccc(Nc2nc(C(=O)N3CCC(c4ccccc4)CC3)cs2)cc1	Short transient receptor potential channel 3 (Homo sapiens, UniProt Q13507)	pIC50	5.60
Cc1sc(Nc2ccc(Cl)cc2F)nc1C(=O)N1CCC[C@@H](C)[C@H]1C	Short transient receptor potential channel 3 (Homo sapiens, UniProt Q13507)	pIC50	6.00
Cc1sc(Nc2cc3c(cc2F)OCO3)nc1C(=O)N1CCCC(C)C1C (stereo unspecified)	Short transient receptor potential channel 3 (Homo sapiens, UniProt Q13507)	pIC50	6.80
CC1c2ccccc2CCN1C(=O)c1csc(Nc2ccc3c(c2)OCO3)n1 (stereo unspecified)	Short transient receptor potential channel 3 (Homo sapiens, UniProt Q13507)	pIC50	6.50

A. Cc1ccc(Nc2nc(C(=O)N3CCCCC3c3ccccc3)cs2)cc1 (stereo unspecified)
B. CC1CCN(C(=O)c2csc(Nc3ccc4c(c3)OCO4)n2)CC1
Looking only at measured pIC50, which entry is lower, A or B ? Give the label under which the chosen entry appears.
A
(A: 4.90, B: 6.40)

###

# ASSAY_EXPLANATION: Clearance in rat at 0.82 mg/kg, iv
# Format: ADME, organism-based
# Parameters: dose 0.82 mg/kg, route intravenous
# DETAILS: in vivo
OBSERVED_PROPERTY: clearance (mL/min/kg)
The answer is to be given in mL/min/kg; state only the numeric part.

Param item = Cc1sc(Nc2ccc(Cl)cc2F)nc1C(=O)N1CCC[C@H](C)[C@@H]1C ; retrieve measured clearance.
150

###

# ASSAY_EXPLANATION: Oral bioavailability in rat at 1.05 mg/kg
# Assay type: ADME, organism-based
# DETAILS: in vivo
OBSERVED_PROPERTY: bioavailability

Param item = CC1CCCN(C(=O)c2csc(Nc3ccc4c(c3)OCO4)n2)C1C (stereo unspecified) ; retrieve measured bioavailability.
< 1%

###

# ASSAY_EXPLANATION: Volume of distribution at steady state in rat at 1.06 mg/kg, iv
# Format: ADME, organism-based
# Set-up: dose 1.06 mg/kg, route intravenous
# DETAILS: in vivo, read-out: Vdss
OBSERVED_PROPERTY: Vd (L/kg)
The answer is to be given in L/kg; state only the numeric part.

Param item = Cc1sc(Nc2ccc3c(c2)OCO3)nc1C(=O)N1CCc2ncccc2C1C (stereo unspecified) ; retrieve measured Vd.
0.7

###

# ASSAY_EXPLANATION: Cmax in rat at 0.93 mg/kg, iv
# Type: ADME, organism-based
# Design: dose 0.93 mg/kg, route intravenous
# DETAILS: in vivo
OBSERVED_PROPERTY: Cmax (ng/mL)
The answer is to be given in ng/mL; state only the numeric part.

Param item = COc1ccc(Nc2nc(C(=O)N3CCc4ccccc4C3)cs2)cc1 ; retrieve measured Cmax.
250

###

# ASSAY_EXPLANATION: Oral bioavailability in rat at 0.82 mg/kg
# Type: ADME, organism-based
# DETAILS: in vivo
OBSERVED_PROPERTY: bioavailability (%)
The answer is to be given in %; state only the numeric part.

Param item = Cc1sc(Nc2ccc(Cl)cc2F)nc1C(=O)N1CCC[C@H](C)[C@@H]1C ; retrieve measured bioavailability.
64

###

# ASSAY_EXPLANATION: Oral bioavailability in rat at 0.93 mg/kg
# Type: ADME, organism-based
# DETAILS: in vivo
OBSERVED_PROPERTY: bioavailability (%)
The answer is to be given in %; state only the numeric part.

Param item = COc1ccc(Nc2nc(C(=O)N3CCc4ccccc4C3)cs2)cc1 ; retrieve measured bioavailability.
1

###

# ASSAY_EXPLANATION: Clearance in rat at 0.86 mg/kg, iv
# Format: ADME, organism-based
# Parameters: dose 0.86 mg/kg, route intravenous
# DETAILS: in vivo
OBSERVED_PROPERTY: clearance (mL/min/kg)
The answer is to be given in mL/min/kg; state only the numeric part.

Param item = CC1CCCN(C(=O)c2nc(Nc3cc4c(cc3F)OCO4)sc2Cl)C1C (stereo unspecified) ; retrieve measured clearance.
46

###

# ASSAY_EXPLANATION: Cmax in rat at 1.04 mg/kg, iv
# Format: ADME, organism-based
# Set-up: dose 1.04 mg/kg, route intravenous
# DETAILS: in vivo
OBSERVED_PROPERTY: Cmax (ng/mL)
The answer is to be given in ng/mL; state only the numeric part.

Param item = Cc1ccc(Nc2nc(C(=O)N3CCCC(C)C3C)cs2)cc1 (stereo unspecified) ; retrieve measured Cmax.
310

###

Listing of entries alongside the reported pIC50.
# SUBJECT_OF_TEST: Sodium channel protein type 5 subunit alpha (Homo sapiens)
# Sequence (Q14524 whole entry): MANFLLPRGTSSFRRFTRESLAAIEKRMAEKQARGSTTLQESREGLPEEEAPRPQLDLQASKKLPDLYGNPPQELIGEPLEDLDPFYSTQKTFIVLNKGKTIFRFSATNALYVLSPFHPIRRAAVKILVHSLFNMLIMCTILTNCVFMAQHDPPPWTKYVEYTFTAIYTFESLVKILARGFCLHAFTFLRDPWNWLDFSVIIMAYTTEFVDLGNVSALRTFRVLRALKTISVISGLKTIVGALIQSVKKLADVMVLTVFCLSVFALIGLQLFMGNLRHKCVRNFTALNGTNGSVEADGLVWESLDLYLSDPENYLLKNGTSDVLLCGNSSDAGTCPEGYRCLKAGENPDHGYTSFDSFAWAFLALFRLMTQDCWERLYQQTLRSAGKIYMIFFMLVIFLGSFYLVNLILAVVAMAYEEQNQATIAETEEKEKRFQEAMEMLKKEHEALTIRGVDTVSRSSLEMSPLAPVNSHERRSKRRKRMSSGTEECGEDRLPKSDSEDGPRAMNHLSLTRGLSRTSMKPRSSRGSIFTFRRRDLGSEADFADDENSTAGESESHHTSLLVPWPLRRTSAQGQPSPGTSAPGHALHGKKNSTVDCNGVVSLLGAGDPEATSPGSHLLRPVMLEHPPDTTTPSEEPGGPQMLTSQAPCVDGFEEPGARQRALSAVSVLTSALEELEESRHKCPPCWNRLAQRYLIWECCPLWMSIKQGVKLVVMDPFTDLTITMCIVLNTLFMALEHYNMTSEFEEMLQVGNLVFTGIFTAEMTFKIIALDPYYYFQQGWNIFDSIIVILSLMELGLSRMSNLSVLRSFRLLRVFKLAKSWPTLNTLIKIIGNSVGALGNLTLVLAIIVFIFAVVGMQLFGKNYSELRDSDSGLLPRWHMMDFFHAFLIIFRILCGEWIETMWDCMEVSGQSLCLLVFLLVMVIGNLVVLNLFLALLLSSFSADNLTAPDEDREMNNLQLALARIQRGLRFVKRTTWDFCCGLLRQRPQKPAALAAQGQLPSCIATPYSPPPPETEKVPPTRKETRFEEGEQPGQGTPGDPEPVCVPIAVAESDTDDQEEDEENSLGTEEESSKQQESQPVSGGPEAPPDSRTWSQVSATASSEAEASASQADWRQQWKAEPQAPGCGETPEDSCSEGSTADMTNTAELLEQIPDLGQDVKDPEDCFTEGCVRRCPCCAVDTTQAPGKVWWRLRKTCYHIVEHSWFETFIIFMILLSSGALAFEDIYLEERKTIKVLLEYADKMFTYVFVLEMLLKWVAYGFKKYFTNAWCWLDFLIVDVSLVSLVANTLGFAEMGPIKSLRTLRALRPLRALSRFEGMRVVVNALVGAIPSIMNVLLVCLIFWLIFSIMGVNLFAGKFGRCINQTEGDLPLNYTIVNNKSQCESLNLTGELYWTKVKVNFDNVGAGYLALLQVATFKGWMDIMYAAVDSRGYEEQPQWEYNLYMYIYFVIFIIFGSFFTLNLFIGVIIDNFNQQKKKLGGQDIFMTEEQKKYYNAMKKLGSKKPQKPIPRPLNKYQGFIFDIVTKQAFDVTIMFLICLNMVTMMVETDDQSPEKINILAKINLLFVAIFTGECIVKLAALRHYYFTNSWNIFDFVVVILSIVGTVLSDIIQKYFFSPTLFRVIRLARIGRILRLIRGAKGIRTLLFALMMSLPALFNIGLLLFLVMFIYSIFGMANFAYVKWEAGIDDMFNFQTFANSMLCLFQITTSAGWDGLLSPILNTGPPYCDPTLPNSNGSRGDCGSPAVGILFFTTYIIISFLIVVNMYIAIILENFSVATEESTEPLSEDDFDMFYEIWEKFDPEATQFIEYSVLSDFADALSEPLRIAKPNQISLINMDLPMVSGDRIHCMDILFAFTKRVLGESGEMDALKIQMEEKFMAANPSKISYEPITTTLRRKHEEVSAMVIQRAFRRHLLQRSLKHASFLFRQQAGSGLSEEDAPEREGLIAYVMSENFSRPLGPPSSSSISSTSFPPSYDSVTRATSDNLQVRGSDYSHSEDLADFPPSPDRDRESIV
# ASSAY_EXPLANATION: Inhibition of NaV1.5 channel (unknown origin) by patch express-based electrophysiology assay
Note: pIC50 values are expressed as the negative base-10 logarithm of concentration in M.

MOLECULE	RESULT_VALUE
Cc1sc(Nc2ccc(Cl)cc2F)nc1C(=O)N1CCC[C@H](C)[C@@H]1C	5.48

Give recorded pIC50 with Sodium channel protein type 5 subunit alpha (Homo sapiens) for the following molecule: Cc1ccc(Nc2nc(C(=O)N3CCCC(C)C3C)cs2)cc1 (configuration not stated)
4.30
